SYSTEM_TESTED: PKR(wt) (Homo sapiens, UniProt P30613)
Sequence (P30613 whole entry): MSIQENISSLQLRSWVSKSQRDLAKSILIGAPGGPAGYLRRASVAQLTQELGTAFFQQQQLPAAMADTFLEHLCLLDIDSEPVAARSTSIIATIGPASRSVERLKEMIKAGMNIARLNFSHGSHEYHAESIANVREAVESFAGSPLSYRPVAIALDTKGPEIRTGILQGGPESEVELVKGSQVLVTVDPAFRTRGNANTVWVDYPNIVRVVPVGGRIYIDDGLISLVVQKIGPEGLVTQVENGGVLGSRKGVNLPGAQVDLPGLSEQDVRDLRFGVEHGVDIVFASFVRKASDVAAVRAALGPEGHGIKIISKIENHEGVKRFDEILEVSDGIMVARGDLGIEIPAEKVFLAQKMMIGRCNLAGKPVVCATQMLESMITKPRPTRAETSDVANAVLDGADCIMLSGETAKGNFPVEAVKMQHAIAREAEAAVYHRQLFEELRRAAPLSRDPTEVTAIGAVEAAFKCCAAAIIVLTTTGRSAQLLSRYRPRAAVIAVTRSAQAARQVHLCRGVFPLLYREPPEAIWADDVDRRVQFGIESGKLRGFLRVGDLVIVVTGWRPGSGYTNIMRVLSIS
ASSAY_OVERVIEW: Luminescence Biochemical Assay (Kinase Glo Plus), wild type PKR
EXPERIMENTAL_CONDITIONS: without FBP, read-out: AC50 LUM KGP woFBP AC50 μM gmean
Please go through the items and note down their AC50.

Record excerpt, results attached:
COMPOUND: NCC1(C(=O)N2CC3=C(C2)CN(S(=O)(=O)c2ccc4occc4c2)C3)CC1
AC50: 1 to 40 µM
//
COMPOUND: O=C([C@H](O)c1ccccc1)N1CC2=C(C1)CN(S(=O)(=O)c1cc(F)ccc1Cl)C2
AC50: 0.1 to 1 µM
//
COMPOUND: CN1CCOc2ccc([C@@H](O)C(=O)N3CC4=C(C3)CN(S(=O)(=O)c3ccc(OC(F)F)cc3)C4)cc21 (single isomer, unassigned)
AC50: 1 to 40 µM

// next entry
Problem: // AC50 lookup, key: `COc1ccccc1CNC(=O)N1CC2=C(C1)CN(S(=O)(=O)c1ccc3ncsc3c1)C2`
Result: 0.1 to 1 µM

====

SYSTEM_TESTED: PKR(wt) (Homo sapiens, UniProt P30613)
ASSAY_OVERVIEW: Luminescence Biochemical Assay (Kinase Glo Plus), wild type PKR
EXPERIMENTAL_CONDITIONS: without FBP, read-out: AC50 LUM KGP woFBP MAX % FOLD mean
MEASURED_PARAMETER: Emax

COMPOUND: O=C([C@H](O)c1ccccc1)N1CC2=C(C1)CN(S(=O)(=O)c1cccnc1)C2
Emax: 75 to 250%
--
COMPOUND: Cc1cc(C(C)NC(=O)N2CC3=C(C2)CN(S(=O)(=O)c2ccc(OC(F)F)cc2)C3)c(C)o1 (stereo not shown)
Emax: 250 to 500%
--
COMPOUND: O=C(NCc1cccnc1)N1CC2=C(C1)CN(S(=O)(=O)c1ccc3occc3c1)C2
Emax: 75 to 250%
--
COMPOUND: O=C(Cn1cnnn1)N1CC2=C(C1)CN(S(=O)(=O)c1cccnc1)C2
Emax: 75 to 250%
--
COMPOUND: O=C(C1CCOCC1)N1CC2=C(C1)CN(S(=O)(=O)c1ccc3c(c1)NCCO3)C2
Emax: 250 to 500%

Please give Emax, item by item, for the list that follows.
1. O=C(Cc1ccc[nH]1)N1CC2=C(C1)CN(S(=O)(=O)c1ccc(OC(F)F)cc1)C2
2. O=C([C@H](O)c1ccc2c(c1)CNCC2)N1CC2=C(C1)CN(S(=O)(=O)c1ccc(OC(F)F)cc1)C2 (single isomer, unassigned)

Result:
1. 75 to 250%
2. 250 to 500%

====

SYSTEM_TESTED: PKR(wt) (Homo sapiens)
ASSAY_OVERVIEW: Luminescence Biochemical Assay (Kinase Glo Plus), wild type PKR
EXPERIMENTAL_CONDITIONS: without FBP, read-out: AC50 LUM KGP woFBP AC50 μM gmean
MEASURED_PARAMETER: AC50

// below: answered compounds
COMPOUND: O=C(Cn1cnnn1)N1CC2=C(C1)CN(S(=O)(=O)c1ccc(OC(F)F)cc1)C2 [Example 18-19]
AC50: 0.1 to 1 µM
--
COMPOUND: O=C(c1cnc(C(F)(F)F)nc1)N1CC2=C(C1)CN(S(=O)(=O)c1ccc3occc3c1)C2 [Example 18-86]
AC50: 1 to 40 µM
--
COMPOUND: O=C([C@H](O)c1ccc2c(c1)NCCO2)N1CC2=C(C1)CN(S(=O)(=O)c1ccc(OC(F)F)cc1)C2 (single isomer, unassigned) [Example 9-4]
AC50: 1 to 40 µM
--
COMPOUND: NS(=O)(=O)c1cccc(S(=O)(=O)N2CC3=C(CN(C(=O)[C@H](O)c4ccccc4)C3)C2)c1 [Example 17-1]
AC50: 1 to 40 µM
--
COMPOUND: O=C(C1OCCc2ccccc21)N1CC2=C(C1)CN(S(=O)(=O)c1ccc(OC(F)F)cc1)C2 (stereo not drawn) [Example 18-33]
AC50: 1 to 40 µM

Dear colleague, could you please provide AC50 for the compounds listed below?
1. O=C(OCc1cccc(F)c1)N1CC2=C(C1)CN(S(=O)(=O)c1ccc3occc3c1)C2 [Example 22-6]
2. O=C(NCc1ccccc1F)N1CC2=C(C1)CN(S(=O)(=O)c1ccc3ncsc3c1)C2 [Example 21-20]
3. Cc1cc(C(C)NC(=O)N2CC3=C(C2)CN(S(=O)(=O)c2ccc(OC(F)F)cc2)C3)c(C)o1 (stereo not drawn) [Example 21-4]

Result:
1. 0.1 to 1 µM
2. ≤ 0.1 µM
3. 1 to 40 µM
